- system: Bcl-2-like protein 2 (Homo sapiens, UniProt Q92843)
- protocol-text: Bcl-W/Bim binding regulators – biochemical, multiplexed, bead-based flow cytometry, fluorescence, dose response (AID 1330)
- assay-conditions: inactive by the depositor's call
pEC50: −log10 of the molar value.
measured-quantity: pEC50

Some entries whose results are on file:
test-smiles: COc1cc(C2Nc3cccc4cccc(c34)N2)ccc1OC(C)=O
system: Bcl-2-like protein 2 (Homo sapiens, UniProt Q92843)
data-value: 4.94

test-smiles: Cc1ccc(-c2ccc(/C=C3\SC(N4CCOCC4)=NC3=O)o2)cc1
system: Bcl-2-like protein 2 (Homo sapiens, UniProt Q92843)
data-value: 4.05

test-smiles: CCOc1cc(C2Nc3cccc4cccc(c34)N2)ccc1O
system: Bcl-2-like protein 2 (Homo sapiens, UniProt Q92843)
data-value: 4.50

test-smiles: COc1ccc(/C=C/C(=O)c2cc(Br)ccc(=O)c2O)cc1
system: Bcl-2-like protein 2 (Homo sapiens, UniProt Q92843)
data-value: 4.56

test-smiles: CCOC(=O)c1c(O)nc2ccc(Cl)c3c2c1-c1ccccc1C3=O
system: Bcl-2-like protein 2 (Homo sapiens, UniProt Q92843)
data-value: 5.21

I: Cc1ccc(C(=O)/C=C/c2ccc(-c3ccc(C)cc3)o2)cc1
II: CCOC(=O)c1ccc(Nc2nc(C(=O)OCC)nc3ccccc23)cc1
*Q* Pick the one with the larger pEC50: I vs II Write down the label attached to your selection.
*A* I
(I: 5.99, II: 5.57)

I: CN(C)c1ncc(C2=C(Cl)C(=O)C(N3CCCC3)=C(Cl)C2=O)s1
II: Cc1ccc(/C=C/C2=Cc3c(sc(NC(=O)CSc4nnc(N)[nH]4)c3C#N)C(C)(C)C2)o1
*Q* Given I and II , report the one with the higher recorded pEC50. Please reply using the label of the selected record.
*A* I

----------
- system: Bcl-2-like protein 2 (Homo sapiens)
- Sequence (Q92843 whole entry): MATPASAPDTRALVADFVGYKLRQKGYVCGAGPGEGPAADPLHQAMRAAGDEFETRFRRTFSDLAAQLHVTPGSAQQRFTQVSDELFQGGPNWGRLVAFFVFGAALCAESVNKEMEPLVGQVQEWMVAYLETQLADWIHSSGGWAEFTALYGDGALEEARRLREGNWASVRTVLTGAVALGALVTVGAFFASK
- protocol-text: Bcl-W/Bim binding regulators – biochemical, multiplexed, bead-based flow cytometry, fluorescence, dose response (AID 1330)
measured-quantity: EC50 (µM)

Completed entries (count: 3):
compound: COc1ccc2c3c(cccc13)N(C)N=C2C
measured-quantity: EC50
unit-abbrev: µM
data-value: 1.56
--
compound: COCCN=c1scc(-c2ccco2)n1N=Cc1ccc(O)c(O)c1O
measured-quantity: EC50
unit-abbrev: µM
data-value: 1.81
--
compound: OCCN1CCN(CCCc2c3c(cc4c2CCC4)CCC3)CC1
measured-quantity: EC50
unit-abbrev: µM
data-value: 16.6

1: COc1cccc(CN=Nc2nn3cnnc3c3ccccc23)c1O
2: O=[N+]([O-])c1ccc(N=NCc2ccc(O)c(O)c2O)c(S(=O)(=O)N2CCOCC2)c1
3: Nc1c(C(=O)NCC2CCCO2)sc2nc3c(c(-c4ccco4)c12)CC/C3=C\c1ccco1 (stereo not given)
4: COc1cccc2c(SCC(=O)NN=Cc3ccc(O)cc3O)cc(C)nc12
5: COc1ccc(CC(=O)Nc2ccc(-c3nc4cc(C)ccc4o3)c(O)c2)cc1OC
*Q* Hey, quick one: sort these by EC50, low to high? Provide your answer as the labels ordered per the instruction.
*A* 1, 3, 2, 5, 4

I: c1ccc(Nc2cccc(Nc3ccccc3)n2)cc1
II: O=c1[nH]c2ccc(N=Cc3c(O)ccc4cc(Br)ccc34)cc2[nH]1
*Q* Identify the entry with the larger EC50. Options: I and II Selection: enter the item's label.
*A* II
(II: 4.15 µM, I: 2.58 µM)

These measurements were taken from BindingDB's records for doi:10.7270/Q2BR8QM3.
